Reference source: the supplement of paper PMC10567573

B1: MNAT1 (parent)
chain: SLREYNDFLEEVEEIVFNLTNNVD

Variants of: B1
Assay: protein stability index of a GFP-peptide fusion (GPS, HEK-293T) (PSI 1-6); higher = more stable;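 also: lentivirally expressed fusions sorted by FACS into six bins by GFP to DsRed ratio, PSI derived from sequencing read proportions per bin multiplied by bin number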
Conditions: c terminus: a fixed tail appended
quantity-name: protein stability index
Give the figure by itself; no unit, no explanation.

Asked: # get_value(readout='protein stability index', item= N22G )
Given back: 2.96

Asked: # get_value(readout='protein stability index', item= T20S )
Given back: 3.05

Asked: # get_value(readout='protein stability index', item= F17W )
Given back: 1.95

Asked: # get_value(readout='protein stability index', item= N21Q )
Given back: 3.08

Asked: # get_value(readout='protein stability index', item= V12Y )
Given back: 3.04
